All values here come from PubChem BioAssay (NCI).

tested on: KM12 colon; experiment: NCI-60 one-dose screen, 48 h; details: 10 µM unless noted
Compounds without any hit were thinned out: in the full panel of roughly 83,000, 20% have a hit. Calls of active or inactive are those of the source. How the source made its calls: active means growth percent below 10; inactive means the rest.
Field 'call' accepts active, inactive

Fill in: this test's call for O=C1/C(=C/c2ccc(F)cc2)Cc2ccccc21 is ___
inactive

Fill in: this test's call for COC(=O)N/N=C/c1coc2ccc(Cl)cc2c1=O is ___
inactive

Fill in: this test's call for C[C@H](C(=O)N[C@@H](Cc1ccc(-c2ccccc2)cc1)C(=O)NC1CC(C)(C)NC(C)(C)C1)c1ccc(-c2ccccc2)c(F)c1 is ___
active

Fill in: this test's call for Nc1ccccc1-c1ccn[nH]1 is ___
inactive

Fill in: this test's call for COc1cc(-c2nnc(-c3nc(-c4cc(OC)c(OC)c(OC)c4)n4ccccc34)o2)ccc1N is ___
inactive

Fill in: this test's call for BrC1CC(Br)c2c1c1c(c3c2C(Br)CC3Br)C(Br)CC1Br (centres undefined) is ___
inactive

Fill in: this test's call for Cc1sc2nc(NCCc3cccs3)[nH]c(=O)c2c1C is ___
inactive

Fill in: this test's call for CCCCCCCCCCOC(C)=O is ___
inactive

Fill in: this test's call for COc1ccc(-c2cc(-c3nnc(SCC(=O)Nc4ccc(C(C)=O)cc4)n3-c3ccccc3)c3ccccc3n2)cc1OC is ___
inactive

Fill in: this test's call for O=C1CNc2cc(Cl)ccc2N1 is ___
inactive

Fill in: this test's call for COc1ccc(N2CCN(CC(=O)N3CCN(c4nnc(-c5ccc(Cl)cc5)c(-c5ccc(Cl)cc5)n4)CC3)CC2)cc1 is ___
inactive

Fill in: this test's call for Cc1cc2c(cc1C)[n+](Cc1ccc3ccccc3n1)cn2Cc1ccc2ccccc2n1 is ___
active

Fill in: this test's call for Cc1ccc2nc(SCC(=O)Nc3ccc(-c4nc5ccccc5s4)c(Cl)c3)[nH]c2c1 is ___
inactive

Fill in: this test's call for O=C(CC(C(=O)c1ccccc1)N1CCN(Cc2ccccc2)CC1)c1ccccc1 (centres undefined) is ___
inactive

Fill in: this test's call for NS(=O)(=O)c1ccc(-n2nc(-c3ccc(Br)cc3)ccc2=O)cc1 is ___
inactive

Fill in: this test's call for C[C@]12CCC(=O)C=C1CC[C@H]1[C@@H]3C[C@@H](O)[C@](O)(C(=O)CO)[C@@]3(C)C[C@H](O)[C@@]12F is ___
inactive

Fill in: this test's call for NC(=O)c1cc(Br)cc(Br)c1NS(=O)(=O)c1ccccc1 is ___
inactive

Fill in: this test's call for C=C1CC[C@@H]2[C@](C)(COC(C)=O)[C@H](OC(C)=O)CC[C@@]2(C)[C@@H]1CC(NCc1ccccc1)C1=CCOC1=O (some centres undefined) is ___
inactive

Fill in: this test's call for FC(F)(F)c1cc(-c2nnc3n2N=C(N2CCCC2)CS3)cc(C(F)(F)F)c1 is ___
inactive

Fill in: this test's call for CCOC(=O)c1cnc2c(C)cc(C)cc2c1NCCCN(C)C is ___
inactive

Fill in: this test's call for COc1ccc(NC(=O)[C@@H]2C[C@H]2c2ccccc2)c(C(N)=O)c1 is ___
inactive

Fill in: this test's call for Cc1cc2ccccn2c1C(=O)c1ccc(C(=O)c2ccccc2)cc1 is ___
inactive

Fill in: this test's call for COc1ccc(NC(=O)c2ccccc2-c2ccccc2)c(C(N)=O)c1 is ___
inactive

Fill in: this test's call for COc1cccc(C=Nc2cc(C(C)C)c(O)cc2C)c1O is ___
inactive

Fill in: this test's call for CCOC1Oc2ccccc2C(=O)/C1=N/c1nccs1 (centres undefined) is ___
inactive

Fill in: this test's call for N/C(=N\c1nc2ccccc2s1)NC(=O)Nc1ccccc1Cl is ___
inactive

Fill in: this test's call for C[C@@H]1C[C@@H]([C@@H](CC2CC(=O)NC(=O)C2)OC(=O)CC(=O)c2ccccc2)C(=O)[C@@H](C)C1 is ___
inactive

Fill in: this test's call for CC(=O)O[C@H]1CC[C@@]2(C)C(=CC[C@@H]3[C@@H]2CC[C@]2(C)C(c4cccnc4)=CC[C@@H]32)C1 is ___
inactive

Fill in: this test's call for COc1ccc(-c2c3c(N)nc(-c4ccncc4)nc3nc3c2c(C)nn3-c2ccccc2)cc1 is ___
inactive

Fill in: this test's call for COc1ccc2c(c1)CC[C@@H]1[C@@H]2CC[C@]2(C)[C@@H](O)C(=O)C[C@@H]12 is ___
inactive

Fill in: this test's call for CC(C)N(Cc1ccccc1)c1c(S)ssc1=S is ___
inactive

Fill in: this test's call for Nc1c(C(=O)Nc2cccc(Cl)c2)sc2nc3c(cc12)C(O)CCC3 (centres undefined) is ___
inactive

Fill in: this test's call for O=C(/C=C/c1c(-c2ccccc2)[nH]c2ccccc12)S(=O)(=O)c1ccccc1 is ___
inactive

Fill in: this test's call for CN1CCC[C@@H]1CCO[C@](C)(c1ccccc1)c1ccc(Cl)cc1 is ___
inactive

Fill in: this test's call for COc1ccc2c(c1)sc1nc(-c3ccc(Br)cc3)cn12 is ___
inactive

Fill in: this test's call for CCN1CCN(c2nc(NNC(=O)Cc3ccccc3)nc(N3CCN(C(c4ccccc4)c4ccccc4)CC3)n2)CC1 is ___
inactive

Fill in: this test's call for COC(=O)C1=CCC(n2cnc3c(N)ncnc32)O1 (centres undefined) is ___
inactive

Fill in: this test's call for CCOC(=O)CCC(=O)O[C@H]1[C@H](O[C@@H]2[C@@H](C)[C@H](O[C@H]3C[C@@](C)(OC)[C@@H](O)[C@H](C)O3)[C@@H](C)C(=O)O[C@H](CC)[C@@](C)(O)[C@H](O)[C@@H](C)C(=O)[C@H](C)C[C@@]2(C)O)O[C@H](C)C[C@@H]1N(C)C is ___
inactive

Fill in: this test's call for COc1cc(-c2n[nH]nc2-c2ccccn2)cc(OC)c1OC is ___
inactive

----------
system: K-562 leukemia; assay: NCI-60 one-dose screen, 48 h (100 = growth as untreated, 0 = no growth, -100 = all killed); details: 10 µM unless noted
The panel holds about 83,000 compounds, 20% with a hit somewhere; the sample as a whole holds those more often. Active and inactive are the calls of the source. How the source made its calls: active means growth percent below 10; inactive means the rest.
For each entry below, report its growth value.

Query Cc1nn(-c2ccccc2)cc1/C=C1\SC(N2CCCCC2)=NC1=O yields growth of 32.1% (inactive)

Query O=C(/C=C/c1ccc(C(F)(F)F)cc1)c1ccc(Nc2nc(NCCO)nc(NCCO)n2)cc1 yields growth of 11.7% (inactive)

Query N#Cc1c(-c2ccccc2)cc(-c2ccccc2)n(CC(=O)O)c1=O yields growth of 21.1% (inactive)

Query CN1CCN(CCCCCN=c2cc3c(=O)n(CCCCCN4CCN(C)CC4)c(=O)c4c(NCCCCCN5CCN(C)CC5)cc5c(O)n(CCCCCN6CCN(C)CC6)c(=O)c2c5c4-3)CC1 yields growth of 8.94% (active)

Query O=C1/C(=C/c2cccc(Cl)c2)CCc2ccccc21 yields growth of 46.4% (inactive)

Query Nc1c(C(=O)Nc2cccc(Cl)c2)sc2nc3c(cc12)C(O)CCC3 (stereo unspecified) yields growth of 10.6% (inactive)

Query O=C(Nc1ccccc1)P(=O)(O)c1ccccc1 yields growth of 95.7% (inactive)

Query COc1ccc(N2CCN(CC(=O)N3CCN(c4nnc(-c5ccccc5)c(-c5ccccc5)n4)CC3)CC2)cc1 yields growth of 18.7% (inactive)

Query C[C@H]1O[C@@H](O[C@H]2[C@@H](O)C[C@H](O[C@H]3[C@@H](O)C[C@H](O[C@H]4CC[C@]5(C)C6C[C@@H](O)[C@]7(C)[C@@H](C8=CC(=O)OC8)CC[C@]7(O)C6CC[C@@H]5C4)O[C@@H]3C)O[C@@H]2C)C[C@H](O)[C@@H]1O (stereo partly specified) yields growth of -24.2% (active)

Query C(=C1c2ccccc2-c2ccccc21)c1ccncc1 yields growth of 11.4% (inactive)

Query O=C(CNc1ccc2c(c1)C(=O)c1ccccc1C2=O)Nc1ccc2c(c1)C(=O)c1ccccc1C2=O yields growth of -30.2% (active)

Query Cc1nn(-c2nc3ccccc3s2)c(C)c1Oc1ccccc1O yields growth of 31.8% (inactive)

Query Nc1ccc2c(c1)C(=O)c1cc(Cl)c(Cl)cc1-2 yields growth of 87.5% (inactive)

Query CC(NC(N)=S)c1ccccc1 (stereo unspecified) yields growth of 94.6% (inactive)

Query C1CCC(C(CC2CCCCN2)C2CCCCC2)CC1 (stereo unspecified) yields growth of -64.9% (active)

Query c1ccc2nc(Cn3c[n+](Cc4ccc5ccccc5n4)c4ccccc43)ccc2c1 yields growth of 17.8% (inactive)

Query O=C(NC1CCS(=O)(=O)C1)c1ccc(C(=O)c2ccccc2)cc1 (stereo unspecified) yields growth of 108% (inactive)

Query COc1cccc(/C=N/Nc2nc3ccccc3s2)c1OC yields growth of 50.9% (inactive)

Query CC1C(=O)NC2=Nc3ccccc3C(=O)NN21 (stereo unspecified) yields growth of 101% (inactive)

Query O=C(O)c1ccc(CNS(=O)(=O)c2ccc3ccccc3c2)cc1 yields growth of 94.5% (inactive)

Query CC(=O)/C(=C/c1ccc(Cl)cc1)C(=O)c1ccccc1 yields growth of 61.8% (inactive)

Query COc1cc(/C=C2\SC(N3CCCCC3)=NC2=O)ccc1OCCCCCCOc1ccc(/C=C2\SC(N3CCCCC3)=NC2=O)cc1OC yields growth of 3.85% (active)

Query Cc1cc(-c2ccccc2)cc(C)n1 yields growth of 98% (inactive)

Query CC(C)C[C@H](NC(=O)/C=C/Cn1ccc2ccccc2c1=O)B(O)O yields growth of 35.8% (inactive)

Query CCCCCCCCCCOC(C)=O yields growth of 107% (inactive)

Query C=CCN(/C=C/CN(CC=C)CC=C)CC=C yields growth of 100% (inactive)

Query O=C(Nc1cccc(-n2cc(-c3ccncc3)c(-c3cc(O)cc(Cl)c3)n2)c1)Nc1ccc(Cl)c(Cl)c1 yields growth of 1.06% (active)

Query CC1(C)CC2(C)CC(=O)C1C(C(=O)O)C2C(=O)O (stereo unspecified) yields growth of 104% (inactive)

Query CSc1nc(-c2ccc(O)cc2O)c2c(=O)[nH]c(Nc3ccc(S(=O)(=O)Nc4nc(C)cc(C)n4)cc3)nc2n1 yields growth of 99.4% (inactive)

Query N#Cc1ncc(-c2ccc(C(F)(F)F)cc2)c(NC2CCCCCC2)n1 yields growth of 13.6% (inactive)

Query FCc1ncc(-c2ccc(C(F)(F)F)cc2)c(NC2CCCCCC2)n1 yields growth of -2.97% [100 µM] (active)

Query COc1cc2c(cc1OC)C(=O)/C(=C/c1cccc(OCC(=O)c3ccccc3)c1)C2 yields growth of 43.8% (inactive)

Query O=C(O)c1ccc2cccnc2c1O yields growth of 11.1% (inactive)

Query COC(=O)C1CCN(S(=O)(=O)c2ccc(-c3ccccc3)cc2)CC1 yields growth of 103% (inactive)

Query O=C1NCCc2c1noc2-c1ccccc1 yields growth of 108% (inactive)

Query O=C(CNC(=O)c1cccc2ccccc12)Nc1ccccc1Cc1ccccc1 yields growth of 12.3% [5 µM] (inactive)

Query C[C@@H]1C[C@@H]([C@@H](CC2CC(=O)NC(=O)C2)OC(=O)CC(=O)c2ccccc2)C(=O)[C@@H](C)C1 yields growth of 17.7% (inactive)

Query CN(C)CCC(=O)Nc1ccc(-n2cc(-c3cccc(NC(=S)Nc4cccc(-c5cn(-c6ccc(NC(=O)CCN(C)C)cc6)nn5)c4)c3)nn2)cc1 yields growth of 18.6% (inactive)

Query COc1ccc2[nH]c(=O)c(CNc3ccc(Nc4nccc(-c5ccc(Cl)cc5)n4)cc3)cc2c1 yields growth of 68.6% (inactive)

Query CC(=O)c1ccccc1NC(=O)C(C)(c1ccccc1)c1ccccc1 yields growth of 72.5% (inactive)

Query O=CNc1ccc2c(c1)Cc1cc([N+](=O)[O-])ccc1-2 yields growth of 21.3% (inactive)
